Measured Kd, listed per entry.
# test.system: Tyrosine-protein kinase Lck (Homo sapiens)
# Sequence (P06239 whole entry): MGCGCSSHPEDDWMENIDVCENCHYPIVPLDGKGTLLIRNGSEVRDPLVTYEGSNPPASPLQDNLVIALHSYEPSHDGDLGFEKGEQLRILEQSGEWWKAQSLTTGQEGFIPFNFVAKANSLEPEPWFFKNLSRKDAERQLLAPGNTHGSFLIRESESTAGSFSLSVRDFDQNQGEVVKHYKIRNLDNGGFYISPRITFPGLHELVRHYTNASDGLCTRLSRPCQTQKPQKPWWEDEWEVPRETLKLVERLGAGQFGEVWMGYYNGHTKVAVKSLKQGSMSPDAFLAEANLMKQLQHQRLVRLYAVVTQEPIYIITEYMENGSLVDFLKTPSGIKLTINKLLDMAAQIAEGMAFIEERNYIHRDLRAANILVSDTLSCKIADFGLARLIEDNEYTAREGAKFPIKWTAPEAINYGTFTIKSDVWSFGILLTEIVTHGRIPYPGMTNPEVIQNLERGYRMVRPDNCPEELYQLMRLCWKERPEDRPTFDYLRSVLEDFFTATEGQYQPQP
Where a SMILES comes first, the peptide text is derived from it. [ ]: non-standard residue; d: D form. The star is where a group is joined. pY = N[C@@H](Cc1ccc(OP(=O)(O)O)cc1)C(=O)O; NHPhenethyl = c1ccc(CCN*)cc1
Your answer is read as µM, so omit the unit and give the number.

>  <compound>
CC(=O)N[C@@H](Cc1ccc(OP(=O)(O)O)cc1)C(=O)N[C@@H](CC(C)C)C(=O)NCc1ccc(N(C)C)cc1

>  <measure.name>
Kd

>  <unit.of.measurement>
µM

>  <endpoint.value>
20

$$$$

GET /values?readout=Kd&item= COc1ccccc1CNC(=O)[C@H](CC(C)C)NC(=O)[C@H](Cc1ccc(OP(=O)(O)O)cc1)NC(C)=O 17

GET /values?readout=Kd&item= CC(=O)N[C@@H](Cc1ccc(OP(=O)(O)O)cc1)C(=O)N[C@@H](CCC(=O)O)C(=O)NCCc1ccccc1 (Ac-[pY]-Glu-NHPhenethyl) 4

GET /values?readout=Kd&item= CC(=O)N[C@@H](Cc1ccc(OP(=O)(O)O)cc1)C(=O)N[C@@H](CC(C)C)C(=O)N[C@@H](C)c1ccc(C(C)C)cc1 0.2

====

# test.system: Tyrosine-protein kinase Lck (Homo sapiens)
Where a SMILES comes first, the peptide text is derived from it. [ ]: non-standard residue; d: D form. The star is where a group is joined. pY = N[C@@H](Cc1ccc(OP(=O)(O)O)cc1)C(=O)O; NHBn = c1ccc(CN*)cc1; NHPh = c1ccc(N*)cc1
Measured Kd, listed per entry.
Your answer is read as µM, so omit the unit and give the number.

>  <compound>
CC(=O)N[C@@H](Cc1ccc(OP(=O)(O)O)cc1)C(=O)N[C@@H](CC(C)C)C(=O)N[C@@H](C)c1ccc(C)cc1

>  <Kd [µM]>
1.5

$$$$
>  <compound>
CC(=O)N[C@@H](Cc1ccc(OP(=O)(O)O)cc1)C(=O)N[C@@H](CC(C)C)C(=O)NCc1ccncc1

>  <Kd [µM]>
16

$$$$
>  <compound>
COc1ccc(CNC(=O)[C@H](CCC(=O)O)NC(=O)[C@H](Cc2ccc(OP(=O)(O)O)cc2)NC(C)=O)cc1

>  <Kd [µM]>
0.2

$$$$
>  <compound>
CC(=O)N[C@@H](Cc1ccc(OP(=O)(O)O)cc1)C(=O)N[C@@H](CC(C)C)C(=O)NCc1ccccc1 (Ac-[pY]-Leu-NHBn)

>  <Kd [µM]>
16

$$$$
>  <compound>
CC(=O)N[C@@H](Cc1ccc(OP(=O)(O)O)cc1)C(=O)N[C@@H](CCC(=O)O)C(=O)Nc1ccccc1 (Ac-[pY]-Glu-NHPh)

>  <Kd [µM]>
8

$$$$

Report Kd for CC(=O)N[C@@H](Cc1ccc(OP(=O)(O)O)cc1)C(=O)N[C@@H](CC(C)C)C(=O)N[C@H](C)c1ccc(C)cc1 tested on Tyrosine-protein kinase Lck (Homo sapiens). 27

Report Kd for CC(=O)N[C@@H](Cc1ccc(OP(=O)(O)O)cc1)C(=O)N[C@@H](CC(C)C)C(=O)NCc1ccc(C(C)C)cc1 tested on Tyrosine-protein kinase Lck (Homo sapiens). 0.8

Report Kd for CC(=O)N[C@@H](Cc1ccc(OP(=O)(O)O)cc1)C(=O)N[C@@H](CC(C)C)C(=O)NCc1cccnc1 tested on Tyrosine-protein kinase Lck (Homo sapiens). 34
